# Method description: Stability in D2O assessed as compound decomposition at pD 7 after 20 days by NMR spectroscopy
# Type: physicochemical
# Condition label: pH 7, read-out: Drug metabolism
Readout type: degraded at 480 h (%)
Expressed in %, but write only the number.

Req: Supply reported degraded at 480 h belonging to this compound: COc1ccc(S(=O)(=O)N2CC(=O)N(O)C(=O)[C@H]2C(C)C)cc1
Resp: 7

* * *

# Tested system: Stromelysin-1 (Homo sapiens)
# Sequence (P08254 whole entry): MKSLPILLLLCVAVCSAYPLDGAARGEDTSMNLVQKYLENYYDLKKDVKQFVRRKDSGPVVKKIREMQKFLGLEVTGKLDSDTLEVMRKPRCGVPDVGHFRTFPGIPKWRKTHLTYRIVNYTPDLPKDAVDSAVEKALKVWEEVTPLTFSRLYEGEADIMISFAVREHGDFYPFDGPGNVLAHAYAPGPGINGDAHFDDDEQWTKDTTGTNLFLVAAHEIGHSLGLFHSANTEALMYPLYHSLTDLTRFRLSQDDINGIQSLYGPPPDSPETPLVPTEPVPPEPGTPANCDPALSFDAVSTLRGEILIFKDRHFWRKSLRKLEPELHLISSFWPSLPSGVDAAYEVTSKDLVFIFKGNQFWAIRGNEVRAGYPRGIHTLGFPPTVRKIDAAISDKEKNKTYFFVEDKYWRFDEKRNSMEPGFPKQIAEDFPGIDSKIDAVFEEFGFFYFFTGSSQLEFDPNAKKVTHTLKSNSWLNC
Readout type: pIC50
By convention, pIC50 is the negative base-10 log of a molar concentration.

Req: Under Stromelysin-1 (Homo sapiens), report pIC50 for CC(C)[C@@H]1C(=O)N(O)C(=O)CN1S(=O)(=O)c1ccc(-c2ccccc2)cc1
Resp: 5.41
